# Target Of Assay: monomeric P301S 2N4R tau, pHrodo-labelled (human, UniProt P10636 1-758, pHrodo Red maleimide label); further: test concentration or dose not given here
# Sequence (P10636 other isoform, or with tags, fused parts or gaps P301S P301S): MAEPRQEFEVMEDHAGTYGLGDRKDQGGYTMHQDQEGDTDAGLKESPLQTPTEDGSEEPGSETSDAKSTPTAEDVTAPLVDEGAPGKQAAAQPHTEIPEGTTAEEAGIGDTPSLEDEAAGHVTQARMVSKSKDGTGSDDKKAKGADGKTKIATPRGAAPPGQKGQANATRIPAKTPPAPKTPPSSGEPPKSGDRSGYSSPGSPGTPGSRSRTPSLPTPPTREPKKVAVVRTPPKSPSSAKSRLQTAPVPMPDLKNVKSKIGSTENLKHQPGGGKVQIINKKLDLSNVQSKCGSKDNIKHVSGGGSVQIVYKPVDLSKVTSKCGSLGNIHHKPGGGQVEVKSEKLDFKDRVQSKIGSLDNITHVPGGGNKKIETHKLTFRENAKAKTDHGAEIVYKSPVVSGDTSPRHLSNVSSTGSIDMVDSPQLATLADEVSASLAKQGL
# Protocol Notes: cell-based or functional assay
Assay Metric: inhibition of monomeric tau uptake into human iPSC-derived astrocytes (%)
Use % as the unit, but write only the number.

#44 VH4VK3 humanised hIgG1 (antibody, V domains shown, also called VH4Vκ3; Clone VH4VK3 (D)) VH: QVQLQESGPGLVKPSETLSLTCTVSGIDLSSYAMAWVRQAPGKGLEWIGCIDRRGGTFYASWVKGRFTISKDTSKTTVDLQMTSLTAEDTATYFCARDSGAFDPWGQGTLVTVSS VL: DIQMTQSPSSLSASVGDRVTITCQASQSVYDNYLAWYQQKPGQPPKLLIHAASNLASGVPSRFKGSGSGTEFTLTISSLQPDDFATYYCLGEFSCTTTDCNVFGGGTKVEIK; 87.5

Next up:
INPUT: Could you tell me which inhibition of monomeric tau uptake into human iPSC-derived astrocytes is on file for #44 VH3VK4 humanised hIgG1 (antibody, V domains shown, also called VH3Vκ4; Clone VH3VK4 (B)) VH: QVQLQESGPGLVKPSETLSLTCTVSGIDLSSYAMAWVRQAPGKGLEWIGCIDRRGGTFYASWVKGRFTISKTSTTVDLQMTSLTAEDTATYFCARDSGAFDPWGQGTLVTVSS VL: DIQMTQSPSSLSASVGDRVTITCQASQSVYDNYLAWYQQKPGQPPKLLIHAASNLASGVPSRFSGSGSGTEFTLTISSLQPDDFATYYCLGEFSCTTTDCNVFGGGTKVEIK ?
OUTPUT: 87.6
